Recorded cell viability by entry
- Test system: Mv4-11
- experiment.notes: cell viability relative to DMSO control (bortezomib = 0%); higher = less growth inhibition
- condition.set: 10 nM; 72 h
Please respond with the number in % and leave the unit unwritten.

Examples with their reported cell viability follow.
GET /values?readout=cell viability&item= COCCOc1cnc2ccn([C@H](C)c3nnc4c(F)cc(-c5cnn(C)c5)cn34)c(=O)c2c1
115

What does the record list as cell viability for O=C(NCc1cccc(O)c1)c1cc2cc(F)ccc2[nH]1 ?
114

For the compound COC(=O)c1ccc2c(c1)NC(=O)/C2=C(\Nc1ccc(N(C)C(=O)CN2CCN(C)CC2)cc1)c1ccccc1 , what cell viability is on record?
99.8

cell viability lookup needed for O=C(O)c1ccc(Nc2ncc3c(n2)-c2ccc(Cl)cc2C(c2c(F)cccc2F)=NC3)cc1 , thanks.
107

Item Cc1nc(NC(=O)N2CCC[C@@H]2C(N)=O)sc1-c1ccnc(C(C)(C)C(F)(F)F)c1 [BYL-719(Alpelisib)] has what recorded cell viability?
102

Others:
Quick one: cell viability for Cc1ccc(NC(=O)c2ccc(CN3CCN(C)CC3)cc2)cc1Nc1nccc(-c2cccnc2)n1 [Imatinib (mesylate)] ?
121

Entry O=C(NCc1cccc(O)c1)Nc1nc(-c2ccncc2)cs1 : reported cell viability = ?
121

* * *

- Test system: Molm13
- experiment.notes: cell viability relative to DMSO control (bortezomib = 0%); higher = less growth inhibition
- condition.set: 10 nM; 72 h
measured.metric: cell viability (%)
Give the quantity in %, number only.

// cell viability lookup, key: CNc1nc(Nc2cnn([C@H]3CCN(C4COC4)C[C@@H]3F)c2Cl)ncc1C(F)(F)F
99.6

Form field: reported cell viability of Cc1cc(Nc2nc(N[C@@H](C)c3ccc(F)cc3)c(C#N)cc2F)n[nH]1
123

I am curious: what cell viability value has been reported for Cc1ccc2c(Nc3ccc(Cl)cc3)nccc2c1Nc1ncccc1-c1ncnc2nc[nH]c12 [B-Raf inhibitor 1] ?
98.9

Next:
I am curious: what cell viability value has been reported for COc1cc(Nc2ncc(F)c(Nc3ccc4c(n3)N(COP(=O)(O)O)C(=O)C(C)(C)O4)n2)cc(OC)c1OC [R788 (Fostamatinib) Disodium] ?
92

* * *

- Tested on: Mv4-11
- experiment.notes: cell viability relative to DMSO control (bortezomib = 0%); higher = less growth inhibition
- condition.set: 10 nM; 72 h
Where a name gives a salt, the structure may show the parent alone.
The entries below are paired with their reported cell viability.

Worked cases, cell viability given:
Form entry - test system: Mv4-11; read-out: cell viability; compound: Cc1c(NC(=O)c2ccc(C(C)(C)C)cc2)cccc1-c1cn(C)c(=O)c(Nc2ccc(C(=O)N3CCOCC3)cc2)n1
115%

So what cell viability did NC(=O)c1ccc(N(C(N)=O)c2c(F)cccc2F)nc1-c1ccc(F)cc1F get with Mv4-11?
98.7%

# value lookup — system Mv4-11, readout cell viability, item COc1cc2ncnc(Nc3ccccc3)c2cc1OC
107%

Please tell me: cell viability of CONC(=O)c1ccccc1Nc1cc(Nc2cc(C)nn2C(C)C)ncc1Cl , system Mv4-11?
105%

Recorded cell viability for COc1ccc(-n2c(SCC#N)nc3sc4c(c3c2=O)CCCC4)cc1 with Mv4-11, please?
103%

---
Find the measured cell viability: item CCS(=O)(=O)N1CC(CC#N)(n2cc(-c3ncnc4[nH]ccc34)cn2)C1 , target or system Mv4-11.
105%

Under Mv4-11: cell viability value of CCN1CCN(Cc2ccc(C(=O)Nc3ccc(C)c(Oc4ccc5c(c4)CC(=O)N5)c3)cc2C(F)(F)F)CC1 ?
114%

Find the measured cell viability: item Cc1ccc(C(=O)Nc2ccc(CN3CCN(C)CC3)c(C(F)(F)F)c2)cc1C#Cc1cnc2[nH]ncc2c1 , target or system Mv4-11.
-14.8%

Could you share what cell viability was measured for FC(F)c1nc2ccccc2n1-c1nc(N2CCOCC2)nc(N2CCOCC2)n1 , tested on Mv4-11?
122%

# get_value(readout= cell viability, system= Mv4-11) for O=S(=O)(c1cccc2cnccc12)N1CCCNCC1 [Fasudil (HA-1077) hydrochloride]
104%

* * *

- Test system: Molm13
- experiment.notes: cell viability relative to DMSO control (bortezomib = 0%); higher = less growth inhibition
- condition.set: 10 nM; 72 h
Where a name gives a salt, the structure may show the parent alone.
Listed here: items and their measured cell viability.
Quick note: give the figure in %, leave out the unit.

These solved cases illustrate the format of a correct answer.
# get_value(readout='cell viability', item= CC(C)Oc1ccc(C(=O)N[C@H](CNC(=O)CN(C)C)Cc2ccc(-c3cn4cccc([C@H](C)O)c4n3)cc2)cc1Cl )
110

Would you mind telling me what cell viability value was observed for Cc1c(NC(=O)c2ccc(C(C)(C)C)cc2)cccc1-c1cn(C)c(=O)c(Nc2ccc(C(=O)N3CCOCC3)cc2)n1 ?
106

What does the data say about its cell viability? Entry: CC(C)c1cnc(NC(=O)Cc2ccccc2)s1
92.8

May I ask what cell viability has been recorded for COc1cc2ncnc(Oc3ccc(CC(=O)Nc4cnn(C(C)C)c4)cc3)c2cc1OC ?
24.8

// query cell viability value for entry CCN1CCN(c2ccc(Nc3cc(N(C)C(=O)Nc4c(Cl)c(OC)cc(OC)c4Cl)ncn3)cc2)CC1
110

Given C#Cc1cccc(Nc2ncnc3cc4c(cc23)OCCOCCOCCO4)c1 [Icotinib Hydrochloride] , state its recorded cell viability.
100

Others:
Record request: cell viability value, item CC(C)NCC(O)c1ccc(O)c(O)c1 (stereo not drawn) [Isoprenaline hydrochloride]
114

Need cell viability of CCCCC/C=C\C/C=C\C/C=C\C/C=C\CCCC(=O)NC[C@]1(C)CCC[C@]2(C)c3ccc(C(C)C)cc3CC[C@@H]12 [Arachidonic Acid Leelamide] , thanks.
105

Which cell viability value belongs to Cc1ccc(NC(=O)c2ccc(CN3CCN(C)CC3)cc2)cc1Nc1nccc(-c2cccnc2)n1 [Imatinib Mesylate (STI571)] ?
105

Returns the measured cell viability for the input molecule. Input: O=C1NC(=O)C(c2ccccc2[N+](=O)[O-])=C1Nc1ccc(O)c(Cl)c1
110

Any idea what cell viability was measured for N[C@@H]1CCCN(c2c(/C=C3\SC(=O)NC3=O)cccc2-c2ccccc2)C1 ?
103

Field request: cell viability | item: COC(=O)c1c2c(c3ccccc3c1O)OC(C)(C)C=C2
98

Could you share which cell viability value was measured for CC(C)n1nc(-c2cc3cc(O)ccc3[nH]2)c2c(N)ncnc21 ?
103

What measured cell viability goes with COc1cc(C(=O)N2CCC(N3CCN(C)CC3)CC2)ccc1Nc1ncc2c(n1)N(C)c1ccccc1C(=O)N2C ?
97.5

Param item = CNC(=O)c1ccccc1Oc1nc(Nc2cc(OC)c(OC)c(OC)c2)ncc1Br ; retrieve measured cell viability.
98.7

Give its cell viability value. Item: c1cc(-c2cnn3cc(-c4ccc(OCCN5CCCCC5)cc4)cnc23)ccn1 [Dorsomorphin dihydrochloride]
58.3

// returns reported cell viability for input CCOc1cc(N2CCC(O)CC2)ccc1Nc1ncc2c(n1)N(C)c1ccccc1C(=O)N2C
98.8

Please give the measured cell viability for this molecule: CCOC(=O)c1cnc2ccc(-c3cncc(NS(=O)(=O)c4ccccc4)c3)cn12
99.7

* * *

- System: Molm13
- experiment.notes: cell viability relative to DMSO control (bortezomib = 0%); higher = less growth inhibition
- condition.set: 10 nM; 72 h
measured.metric: cell viability (%)
Write the answer as a number in %, unit excluded.

Previously resolved entries follow.
Consider the compound C[C@H]1Oc2cc(cnc2N)-c2c(nn(C)c2C#N)CN(C)C(=O)c2ccc(F)cc21 and give its measured cell viability.
115

Request the reported cell viability associated with CN(c1ccccc1CNc1nc(Nc2ccc3c(c2)CC(=O)N3)ncc1C(F)(F)F)S(C)(=O)=O
112

GET /values?readout=cell viability&item= C[C@@H]1O[C@@H](Oc2c(-c3cc(O)c(O)c(O)c3)oc3cc(O)cc(O)c3c2=O)[C@H](O)[C@H](O)[C@H]1O [Myricetrin]
89.1

Consider the compound shown here: COc1cccc(-c2cc(=O)c3ccccc3o2)c1N What is its recorded cell viability?
105

Next:
Which cell viability value belongs to Cc1cc(N)c2ccccc2[n+]1CCCCCCCCCC[n+]1c(C)cc(N)c2ccccc21 [Dequalinium chloride] ?
92.3

Form field: reported cell viability of Nc1nc(NC2CC2)cc(-c2cccc(Cl)c2Cl)n1
115

Return reported cell viability; argument: O=c1c(O)c(-c2cc(O)c(O)c(O)c2)oc2cc(O)cc(O)c12 [Myricetin]
106

// query cell viability value for entry Cc1ccc(CNc2ncnc3ccc(-c4ccc(CO)o4)cc23)o1
118

Sample O=C(NCc1ccccc1)c1csc(Nc2ccncn2)n1 [Thiazovivin] — what was its cell viability?
115

* * *

Item-by-item account of cell viability
- System: Mv4-11
- experiment.notes: cell viability relative to DMSO control (bortezomib = 0%); higher = less growth inhibition
- condition.set: 10 nM; 72 h
# unit: % | format: bare number

Please provide the recorded cell viability for CNc1nc(-c2ccc3c(N)n[nH]c3c2)cc(N2C[C@@H](C(=O)NC3CCCCC3)CC[C@H]2C)n1 , tested on Mv4-11.
99.1

Which cell viability is reported with Mv4-11 for this entry: COc1cc(N2CCN(C)CC2)ccc1Nc1nccc(-c2cn(C)c3cnccc23)n1 ?
117

---
Under Mv4-11: cell viability value of Cn1cc(C2=C(c3cn(CCCSC(=N)N)c4ccccc34)C(=O)NC2=O)c2ccccc21 [Bisindolylmaleimide IX (mesylate)] ?
104

Mv4-11 / cell viability / COc1ccc([C@@H]2OC[C@H]3[C@@H]2CO[C@@H]3c2ccc(O[C@@H]3O[C@H](CO)[C@@H](O)[C@H](O)[C@H]3O)c(OC)c2)cc1OC : value?
102

Lab note: need cell viability with Mv4-11 for entry O=C1NC(=O)/C(=C/c2ccc3c(c2)OCO3)S1 , please look it up.
112
